B1: TPR t1 (parent)
chain: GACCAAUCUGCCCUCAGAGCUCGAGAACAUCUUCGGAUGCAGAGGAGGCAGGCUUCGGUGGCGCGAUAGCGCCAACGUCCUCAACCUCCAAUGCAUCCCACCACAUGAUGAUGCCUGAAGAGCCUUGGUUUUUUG

variants of: B1; test: polymerase ribozyme fitness, log enrichment relative to wild type (log ratio); higher = more active; in vitro selection for triplet polymerase activity
Readout Name: polymerase ribozyme fitness (log ratio)

- Mut: "C22A U55C"
  Experimental Result: -4.37
- Mut: "A50G G60C"
  Experimental Result: -1.81
- Mut: "U9A C13G A26C G63C G110A"
  Experimental Result: -5.86
- Mut: "C72A U125G U131A"
  Experimental Result: -0.709
- Mut: "C4G G57C C89A C123A"
  Experimental Result: -3.43
- Mut: "C22G A111C"
  Experimental Result: -3.66
- Mut: "C12G C88A"
  Experimental Result: 0.489
- Mut: "U14C U33C"
  Experimental Result: -5.43
- Mut: "C8U C28G U109A"
  Experimental Result: -4.64
- Mut: "G42A A43C"
  Experimental Result: -2.41
- Mut: "A6U C40U"
  Experimental Result: 0.421
